# System: ICS
# Test Summary: qHTS profiling for inhibitors of Plasmodium falciparum proliferation (AID 504749); further: nearly all actives have a fitted effect of over 60% in size
# Test Context: P. falciparum in erythrocytes, SYBR Green DNA, 72 h; series mostly up to 12.8 µM
# Method: NIH National Institute of Allergy and Infectious Diseases [NIAID] NIH Chemical Genomics Center [NCGC] […] Because mature erythrocytes lack DNA, only Plasmodium-derived DNA is detected. NCGC Assay Protocol Summary: The SYBR Green viability assay was adapted from a method described previously (Plouffe et al., 2008). […] The following morning, fluorescence intensity at 485(14) nm excitation and 535(25) nm emission wavelengths was measured on an EnVision (Perkin Elmer) plate reader. […]
Inconclusive results are not listed. Active and inactive are the calls of the source. The call rests on the fitted dose curve; in most records, active means well fitted inhibition curve with a large enough effect; inconclusive means small, poorly fitted or top-dose-only effect; inactive means flat fitted curve, though single readings scatter.
Would you mind answering with one of these outcomes? active, inactive

# count of solved cases: 3
>>> assigned_category("C=CC1=C(C(=O)O)N2C(=O)[C@@H](NC(=O)/C(=N\\OCC(=O)O)c3csc(N)n3)[C@@H]2SC1")
"inactive"
>>> assigned_category("CC(C)Oc1ccc2c(=O)cc(-c3ccccc3)oc2c1")
"inactive"
>>> assigned_category("CN1CCN([C@@H](c2ccccc2)c2ccc(Cl)cc2)CC1")
"active"

Please find the next compound below.
Which result was noted for this compound in the test: CCC(=O)OCC(=O)[C@@]1(OC(=O)CC)[C@H](C)C[C@@H]2[C@@H]3[C@H]([C@@H](O)C[C@@]21C)[C@]1(C)C=CC(=O)C=C1C[C@@H]3Cl
active

These entries and their values trace back to PubChem BioAssay (NCATS).
